# EC50 per entry
- Test system: HIV-1
- PROTOCOL SUMMARY: C8166 HIV-1 Luciferase Assay (EC50)
- Type: cell-based
- CONDITION: Human immunodeficiency virus 1, C8166, 72 h
Answer format: numeric, nM implied, no suffix.

Below are worked cases with known answers.
> print(dat)
                                   compound  assayed.target  readout.label  numeric.readout
1  CC[C@H]1C[C@@H](n2c(=O)nc(-c3cnn(C)c3)c3oc4cc(C#N)c(-c5cnn(C)c5)nc4c32)CCO1           HIV-1           EC50                3
2  CNc1ccc(-c2nc(=O)n(CCC3CCCO3)c3c2oc2ccc(-c4cnco4)cc23)cn1 (stereo not shown)           HIV-1           EC50               54

Exercise: Give the reported EC50 for C[C@@H]1C[C@H](n2c(=O)nc(-c3cnn(C)c3)c3oc4ccc(-c5cnn(C)c5)cc4c32)C[C@H](C)O1 (system: HIV-1).
Solution: 36

Exercise: Give the reported EC50 for CC[C@H]1C[C@@H](n2c(=O)nc(-c3cnn(C)c3)c3oc4cc(F)c(-c5cnn(C)c5)cc4c32)CCO1 (system: HIV-1).
Solution: 6.9

Exercise: Give the reported EC50 for CC[C@H]1C[C@@H](n2c(=O)nc(-c3cnn(C)c3)c3oc4cc(F)c(-c5ccc(C(C)O)nc5)cc4c32)CCO1 (stereo partly shown) (system: HIV-1).
Solution: 110

Exercise: Give the reported EC50 for CNc1ccc(-c2nc(=O)n(CCC3CCCO3)c3c2oc2c(F)cc(-c4cnn(C)c4)cc23)cn1 (stereo not shown) (system: HIV-1).
Solution: 10.2

Exercise: Give the reported EC50 for CC[C@H]1C[C@@H](n2c(=O)nc(-c3cnn(C)c3)c3oc4cc(C#N)c(-c5cnn(C)c5)cc4c32)CCO1 (system: HIV-1).
Solution: 15.1

====

# Papp A→B at 10 μM per entry
- PROTOCOL SUMMARY: Caco-2 Permeability Assay
- Type: in vitro ADME
- CONDITION: human, apparent permeability A to B, compound at 10 μM, apical buffer pH 6.0, basolateral buffer pH 7.4, read-out: Papp (cm/sec, *10^−6)

Below are worked cases with known answers.
> print(dat)
                                   compound      readout.label           result
1  CNc1ccc(-c2nc(=O)n(CCC3CCCO3)c3c2oc2ccc(-c4cncs4)cc23)cn1 (stereo not drawn)  Papp A→B at 10 μM  19.9 ×10⁻⁶ cm/s
2  CC[C@H]1C[C@@H](n2c(=O)nc(-c3cnn(C)c3)c3oc4cc(C#N)c(-c5cccnc5)cc4c32)CCO1  Papp A→B at 10 μM  15.4 ×10⁻⁶ cm/s
3  CC[C@H]1C[C@@H](n2c(=O)nc(-c3cnn(C)c3)c3oc4cc(F)c(-c5cnc(C)o5)cc4c32)CCO1  Papp A→B at 10 μM  12.4 ×10⁻⁶ cm/s
4  CC[C@H]1C[C@@H](n2c(=O)nc(-c3ccc(NC)nc3)c3oc4cnc(-c5cnn(C)c5)cc4c32)CCO1  Papp A→B at 10 μM  14.7 ×10⁻⁶ cm/s
5  CC[C@H]1C[C@@H](n2c(=O)nc(-c3cnn(C)c3)c3oc4cc(C#N)c(-c5cnn(C)c5)nc4c32)CCO1  Papp A→B at 10 μM  20.7 ×10⁻⁶ cm/s

Exercise: Recorded Papp A→B at 10 μM of CC[C@H]1C[C@@H](n2c(=O)nc(-c3cnn(C)c3)c3oc4ccc(-n5cncn5)nc4c32)CCO1 , please.
Solution: 16.8 ×10⁻⁶ cm/s

Exercise: Recorded Papp A→B at 10 μM of CC[C@H]1C[C@@H](n2c(=O)nc(-c3cnn(C)c3)c3oc4cnc(-n5ccnc5)cc4c32)CCO1 , please.
Solution: 8.7 ×10⁻⁶ cm/s

Exercise: Recorded Papp A→B at 10 μM of CNc1ccc(-c2nc(=O)n(CCC3CCCO3)c3c2oc2cc(F)c(-c4cnn(C)c4)cc23)cn1 (stereo not drawn) , please.
Solution: 7.7 ×10⁻⁶ cm/s

Reference source for all entries: patent US9399645B2
